# TARGET_OF_ASSAY: Hexose transporter 1 (Plasmodium falciparum)
# ASSAY_PROCEDURE: ST_JUDE_LEISH: Cytotoxicity at 2uM final concentration against transgenic Leishmania Mexicana promastigotes LmPfHT that are glucose transport deficient and complemented with the Plasmodium falciparum hexose transporter. Activity is measured by DNA content using SYBR green in vitro
# Type: functional
EXPERIMENTAL_ENDPOINT: inhibition (%)
Numeric only. Scale: %

CCN(CC)CCN(Cc1ccc(-c2ccc(C(F)(F)F)cc2)cc1)C(=O)Cn1c(CCc2ccc(F)cc2)nc(=O)c2ccccc21 2.96
CN1CCN(c2cc(NC(=O)Nc3ccc(-c4ccncc4)c(Cl)c3)ccc2Br)CC1 8.89
CS(=O)(=O)Cc1ccc(Nc2nccc(-c3c(-c4cccc(C(=O)Nc5c(F)cccc5F)c4)nn4ccccc34)n2)cc1 10.2

Next molecule, inhibition to be filled in.
Query string: Using the record for `CCCNCc1ccc(-c2ccc(CN(CCOC)C(=O)c3cscn3)cc2)nc1` , state its measured inhibition.
Result string: 1.83

====

inhibition values, listed per item
# TARGET_OF_ASSAY: Hexose transporter 1 (Plasmodium falciparum)
# ASSAY_PROCEDURE: ST_JUDE_LEISH: Cytotoxicity at 2uM final concentration against transgenic Leishmania Mexicana promastigotes LmPfHT that are glucose transport deficient and complemented with the Plasmodium falciparum hexose transporter. Activity is measured by DNA content using SYBR green in vitro
# Format: functional
Numeric only. Scale: %

Previously resolved entries follow.
MOLECULE	inhibition / %
COc1ccc(-c2cccc(NC(=O)c3ccccc3)c2)cc1CN1CCCN(C)CC1	-2.26
CC(C)CNCc1cccc(-c2ccc(CN(CCCN3CCN(C)CC3)C(=O)/C=C/c3ccccc3)cc2)c1	3.29
CN1CCN(CCCN(Cc2csc(-c3ccc(CNCc4ccccc4)cc3)n2)C(=O)c2cc(F)cc(F)c2)CC1	2.02
O=C(N[C@H]1CCN(CCc2ccc(O[C@H]3CCNC3)c(Br)c2)C1)c1ccc(Cl)c(Cl)c1	3
CCn1c(-c2nonc2N)nc2c(Cl)ncc(O[C@H](CCN)c3ccccc3F)c21	48.5

Query string: Using the record for `CCC1(CC)NC(N)=NC(=N)N1OCc1ccc(Cl)c(Cl)c1` , state its measured inhibition.
Result string: 3.75

Query string: Using the record for `C#CCNC(=O)c1ccc(-c2ccnc(Nc3cccc(CCCN4CCOCC4)c3)n2)s1` , state its measured inhibition.
Result string: 37.9

Query string: Using the record for `CCCCCNC(=N)c1ccc(OCCCCCOc2ccc(C(=N)NCCCCC)cc2)cc1` , state its measured inhibition.
Result string: 25.9

====

# TARGET_OF_ASSAY: Glucose transporter (Leishmania mexicana)
# ASSAY_PROCEDURE: ST_JUDE_LEISH: Cytotoxicity at 2uM final concentration against transgenic Leishmania Mexicana promastigotes LmGT2 that are glucose transport deficient and complemented with the L. Mexicana glucose transporter 2. Activity is measured by DNA content using SYBR green in vitro
# Type: functional
inhibition values, listed per item
Numeric only. Scale: %

Previously resolved entries follow.
CC1(C)N=C(N)N=C(N)N1OCc1cc(Cl)c(CON2C(N)=NC(N)=NC2(C)C)cc1Cl -2.89
O=S(=O)(Nc1cccc(CCN2CCC(N3CCCCC3)CC2)c1)c1ccccc1C(F)(F)F -2.06
CCc1c[nH]c2c(N3CCCS3(=O)=O)cc(C(=O)N[C@@H](Cc3ccccc3)[C@H](O)CNC(C)(C)CCCC(C)C)cc12 0.89

Query string: Using the record for `Cc1cc(NCCC(=O)Nc2ccccc2)nc(NCCOc2ccccc2)n1` , state its measured inhibition.
Result string: -1.58

Query string: Using the record for `O=C(C=Cc1ccc(Cl)c(Cl)c1)NC1CCN(CCc2ccccc2)CC1` , state its measured inhibition.
Result string: -4.41
